# assay.target: Potassium channel subfamily K member 10 (Homo sapiens) (UniProt P57789)
# Sequence (P57789 whole entry): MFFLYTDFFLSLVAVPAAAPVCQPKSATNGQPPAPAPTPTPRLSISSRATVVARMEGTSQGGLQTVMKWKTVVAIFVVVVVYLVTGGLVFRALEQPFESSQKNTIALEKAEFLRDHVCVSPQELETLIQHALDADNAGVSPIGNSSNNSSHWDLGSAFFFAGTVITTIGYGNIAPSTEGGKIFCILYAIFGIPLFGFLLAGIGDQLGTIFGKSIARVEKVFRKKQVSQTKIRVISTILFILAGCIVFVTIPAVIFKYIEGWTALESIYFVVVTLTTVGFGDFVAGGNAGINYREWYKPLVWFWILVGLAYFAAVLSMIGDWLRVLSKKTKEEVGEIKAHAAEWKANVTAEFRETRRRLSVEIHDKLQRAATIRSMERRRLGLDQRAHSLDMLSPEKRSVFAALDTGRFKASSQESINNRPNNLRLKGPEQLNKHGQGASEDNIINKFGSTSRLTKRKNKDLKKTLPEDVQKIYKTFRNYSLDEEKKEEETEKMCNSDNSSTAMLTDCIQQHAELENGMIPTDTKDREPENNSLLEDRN
# assay.protocol: Activation of human TREK2 at 30 uM by thallium flux mobilization assay relative to control
Parameter Activity: see the listing below.
Numeric only. Scale: %

The examples below pair each entry with its known result.
INPUT: API: value(readout=Activity, system=Potassium channel subfamily K member 10 (Homo sapiens) (UniProt P57789)) for record O=C(O)c1cccc(NC(=O)c2ccc(C(F)(F)F)cc2)c1
OUTPUT: 0

INPUT: Activity of O=C(O)Cc1cccc(NC(=O)c2cccc(C(F)(F)F)c2)c1 on Potassium channel subfamily K member 10 (Homo sapiens) (UniProt P57789)?
OUTPUT: 1

INPUT: Param readout= Activity; system= Potassium channel subfamily K member 10 (Homo sapiens) (UniProt P57789); entry= O=C(O)c1ccccc1NC(=O)c1ccccc1C(F)(F)F ; returns value.
OUTPUT: -3

INPUT: What value of Activity on Potassium channel subfamily K member 10 (Homo sapiens) (UniProt P57789) does O=C(Nc1ccccc1C(=O)O)c1cccc(C(F)(F)F)c1 have?
OUTPUT: 12

INPUT: Notebook entry, Potassium channel subfamily K member 10 (Homo sapiens) (UniProt P57789) assay: Activity of O=C(O)Cc1ccccc1NC(=O)c1ccccc1C(F)(F)F = ?
OUTPUT: -1

Kindly review the next compound as well.
INPUT: Short answer please: Activity, Potassium channel subfamily K member 10 (Homo sapiens) (UniProt P57789), entry O=C(Nc1cnncc1C(=O)O)c1ccc(SC(F)(F)F)cc1
OUTPUT: 1

----------
# assay.protocol: Elimination half life in rat at 3 mg/kg, po
# Type: ADME, organism-based
# measurement.parameters: in vivo, read-out: beta t1/2 (converted)
assay.endpoint: half-life
Form entry: enter the amount, then its unit.

INPUT: May I ask what half-life has been recorded for O=C(Nc1cc(F)c(Br)cc1C(=O)O)c1ccc(SC(F)(F)F)cc1 ?
OUTPUT: 378 min

----------
# assay.target: UniProt P57789
# assay.protocol: Activation of human TREK2 at 30 uM by thallium flux mobilization assay relative to control
# measurement.parameters: filed as activator
Decision: Activity compared against 70%; not below it gives y, below it gives n.

INPUT: Could you verify whether the entry O=C(Nc1ccc(Br)cc1C(=O)O)c1ccc(SC(F)(F)F)cc1 shows Activity of no less than 70%?
OUTPUT: y

INPUT: # check: Activity of O=C(Nc1cc(Br)ccc1C(=O)O)c1ccc(SC(F)(F)F)cc1 is greater than or equal to 70%
OUTPUT: y

----------
Let's look at some compounds and their measured Activity.
# assay.target: Potassium channel subfamily K member 2 (Homo sapiens)
# assay.protocol: Activation of human TREK1 at 30 uM by thallium flux mobilization assay relative to control
# measurement.parameters: filed as activator
Give your result in % as a bare value.

INPUT: Data request, read-out Activity, for COc1ccc(C(=O)O)c(NC(=O)c2ccc(SC(F)(F)F)cc2)c1
OUTPUT: 52

INPUT: Return reported Activity; argument: O=C(Nc1cc(F)c(Br)cc1C(=O)O)c1ccc(SC(F)(F)F)cc1
OUTPUT: 101

INPUT: Quick one: Activity of O=C(Nc1ccc(F)cc1C(=O)O)c1ccc(SC(F)(F)F)cc1 ?
OUTPUT: 54

INPUT: Activity for O=C(Nc1sc(-c2ccccc2)cc1C(=O)O)c1ccc(SC(F)(F)F)cc1 ?
OUTPUT: 83

INPUT: Could you share which Activity value was measured for O=C(Nc1cc(Cl)ccc1C(=O)O)c1ccc(SC(F)(F)F)cc1 ?
OUTPUT: 66

Further cases:
INPUT: Give the measured Activity of O=C(Nc1ccc([N+](=O)[O-])cc1C(=O)O)c1ccc(SC(F)(F)F)cc1 .
OUTPUT: 56

INPUT: I have this compound here, c1ccc(-c2nnn[nH]2)c(Nc2cccc3c2CCCC3)c1 , and I need its recorded Activity.
OUTPUT: 109

INPUT: Can you share its Activity? I mean this compound: COc1ccc(NC(=O)c2ccc(SC(F)(F)F)cc2)c(C(=O)O)c1
OUTPUT: 50

These measurements were taken from ChEMBL document CHEMBL4665650.
